Target: Lysyl oxidase homolog 2 (Mus musculus)
Sequence (P58022 whole entry): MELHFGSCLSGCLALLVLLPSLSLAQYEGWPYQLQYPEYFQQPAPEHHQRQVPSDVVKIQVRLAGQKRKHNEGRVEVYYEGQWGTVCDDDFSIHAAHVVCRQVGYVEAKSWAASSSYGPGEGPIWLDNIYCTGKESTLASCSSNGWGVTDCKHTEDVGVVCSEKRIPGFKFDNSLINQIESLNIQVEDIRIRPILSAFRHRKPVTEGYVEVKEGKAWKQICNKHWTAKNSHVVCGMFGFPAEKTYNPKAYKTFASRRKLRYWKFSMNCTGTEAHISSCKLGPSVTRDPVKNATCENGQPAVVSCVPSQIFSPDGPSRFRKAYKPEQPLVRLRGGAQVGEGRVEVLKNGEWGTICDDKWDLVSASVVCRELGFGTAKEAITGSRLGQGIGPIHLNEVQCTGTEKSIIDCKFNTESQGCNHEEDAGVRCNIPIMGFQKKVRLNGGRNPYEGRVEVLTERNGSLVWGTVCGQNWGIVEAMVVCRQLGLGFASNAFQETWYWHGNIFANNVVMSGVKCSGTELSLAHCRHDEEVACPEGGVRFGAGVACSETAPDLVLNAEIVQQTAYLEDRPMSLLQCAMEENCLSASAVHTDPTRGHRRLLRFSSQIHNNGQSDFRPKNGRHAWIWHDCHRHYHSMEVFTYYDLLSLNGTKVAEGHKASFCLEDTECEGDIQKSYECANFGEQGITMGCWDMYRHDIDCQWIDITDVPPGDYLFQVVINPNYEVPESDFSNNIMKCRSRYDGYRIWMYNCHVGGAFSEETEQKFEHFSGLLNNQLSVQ
Assay: Inhibition of full length recombinant mouse LOXL2 expressed in CHO cells assessed as reduction in H2O2 production using DAP as substrate preincubated for 2 hrs followed by substrate addition measured every 2 minutes for 50 minutes in presence of BSA by Amplex red dye based fluorescence assay
Entries and their pIC50
To interpret pIC50, take it as minus log10 of a concentration measured in moles per litre.

Exercise: So what does the record say about pIC50 for "N#CCCN" ?
Solution: 6.89

Alright, here's another compound for you.
Exercise: So what does the record say about pIC50 for "NCc1ccnc(Cl)c1" ?
Solution: 6.64

----------
Molecular target: Lysyl oxidase homolog 2 (Rattus norvegicus, UniProt B5DF27)
Sequence (B5DF27 whole entry): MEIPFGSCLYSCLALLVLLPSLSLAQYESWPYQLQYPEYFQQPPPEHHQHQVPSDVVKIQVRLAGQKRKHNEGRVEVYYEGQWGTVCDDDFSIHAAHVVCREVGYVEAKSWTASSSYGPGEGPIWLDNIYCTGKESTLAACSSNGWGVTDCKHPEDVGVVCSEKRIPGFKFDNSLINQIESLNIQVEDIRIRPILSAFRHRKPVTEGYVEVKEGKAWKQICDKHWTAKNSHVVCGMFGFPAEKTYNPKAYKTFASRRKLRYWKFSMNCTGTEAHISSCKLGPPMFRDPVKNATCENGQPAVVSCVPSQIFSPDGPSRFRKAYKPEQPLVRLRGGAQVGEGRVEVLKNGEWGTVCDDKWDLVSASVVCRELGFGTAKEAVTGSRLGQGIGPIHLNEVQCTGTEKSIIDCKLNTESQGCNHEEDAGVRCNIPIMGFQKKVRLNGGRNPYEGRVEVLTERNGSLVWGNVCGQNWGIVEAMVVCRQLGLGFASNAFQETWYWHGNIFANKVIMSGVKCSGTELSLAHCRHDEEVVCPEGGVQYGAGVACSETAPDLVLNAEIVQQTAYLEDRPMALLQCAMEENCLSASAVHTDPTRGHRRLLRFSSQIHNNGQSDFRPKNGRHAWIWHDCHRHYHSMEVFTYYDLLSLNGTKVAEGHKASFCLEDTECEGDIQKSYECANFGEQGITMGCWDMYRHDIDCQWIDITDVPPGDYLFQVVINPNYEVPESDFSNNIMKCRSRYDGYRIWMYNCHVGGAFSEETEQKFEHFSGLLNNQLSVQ
Test: Inhibition of full length recombinant rat LOXL2 expressed in CHO cells assessed as reduction in H2O2 production using DAP as substrate preincubated for 2 hrs followed by substrate addition measured every 2 minutes for 50 minutes in presence of BSA by Amplex red dye based fluorescence assay
Entries and their pIC50
To interpret pIC50, take it as minus log10 of a concentration measured in moles per litre.

Exercise: So what does the record say about pIC50 for "N#CCCN" ?
Solution: 6.90

Exercise: Now try "NCc1ccnc(Cl)c1" .
Solution: 6.87

----------
Target: Lysyl oxidase homolog 3 (Homo sapiens, UniProt P58215)
Sequence (P58215 whole entry, the tested form may be a part): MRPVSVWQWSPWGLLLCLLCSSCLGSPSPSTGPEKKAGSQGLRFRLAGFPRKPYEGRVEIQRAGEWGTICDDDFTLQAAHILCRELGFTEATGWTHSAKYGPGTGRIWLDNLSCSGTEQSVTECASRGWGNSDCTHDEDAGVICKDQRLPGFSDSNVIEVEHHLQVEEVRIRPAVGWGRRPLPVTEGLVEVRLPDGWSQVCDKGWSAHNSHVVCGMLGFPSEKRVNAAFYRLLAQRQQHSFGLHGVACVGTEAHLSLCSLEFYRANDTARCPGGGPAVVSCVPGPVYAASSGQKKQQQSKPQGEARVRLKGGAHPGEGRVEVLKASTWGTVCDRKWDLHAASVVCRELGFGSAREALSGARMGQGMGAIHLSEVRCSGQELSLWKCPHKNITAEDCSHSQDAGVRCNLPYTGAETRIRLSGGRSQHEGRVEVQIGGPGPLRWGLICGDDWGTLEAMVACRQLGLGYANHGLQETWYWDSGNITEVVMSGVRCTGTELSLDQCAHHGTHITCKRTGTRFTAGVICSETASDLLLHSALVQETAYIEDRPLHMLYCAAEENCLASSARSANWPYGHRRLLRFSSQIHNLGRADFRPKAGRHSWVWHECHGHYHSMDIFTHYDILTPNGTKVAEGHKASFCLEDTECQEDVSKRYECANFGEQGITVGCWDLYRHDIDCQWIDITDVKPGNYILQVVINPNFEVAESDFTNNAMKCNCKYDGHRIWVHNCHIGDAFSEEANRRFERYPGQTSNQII
Experiment: Inhibition of recombinant human C-terminal His10-tagged LOXL3 (1 to 753 residues) assessed as reduction in H2O2 production using DAP as substrate preincubated for 2 hrs followed by substrate addition measured every 2 minutes for 50 minutes by Amplex red dye based fluorescence assay
Measured Attribute: pIC50
To interpret pIC50, take it as minus log10 of a concentration measured in moles per litre.

Exercise: Checklist item: pIC50 tested on Lysyl oxidase homolog 3 (Homo sapiens, UniProt P58215), entry "NCc1ccnc(Cl)c1" , value?
Solution: 6.67
